- System: Streptococcus sp.
- TEST_METHOD_NOTES: In vitro antibacterial evaluation: minimum inhibitory concentration (MIC), broth dilution method
- Assay type: cell-based
- CONDITIONS: broth dilution, inoculum 5×10^5 CFU/mL, 18 hours at 35° C.
REPORTED_ENDPOINT: MIC Streptococcus agalactiae (GC 4564) (µg/mL)
Numbers only here, please. The scale is µg/mL.

// fetch MIC Streptococcus agalactiae (GC 4564) given entry CC(c1ccccc1)C1NC(=O)CNC(=O)C(CO)NC(=O)C(C(O)C2CN(c3ncccn3)C(=N)N2C2OC(CO)C(O)C(O)C2O)NC(=O)C(C(O)C2CNC(=Nc3ncccn3)N2)NC(=O)C(Cc2ccc(OC3OC(CO)C(OC4OC5COC6(OC5C(O)C4O)C4CC5CC(C4)CC6C5)C(O)C3O)cc2)NC1=O (stereo not shown)
16

Output MIC Streptococcus agalactiae (GC 4564) of CC(c1ccccc1)C1NC(=O)CNC(=O)C(CO)NC(=O)C(CC2CNC(=N)N2C2OC(CO)C(O)C(O)C2O)NC(=O)C(CC2CNC(=N)N2)NC(=O)C(Cc2ccc(OC3OC(CO)C(OC4OC(CO)C(OCc5ccc(OCc6ccccc6)cc5)C(O)C4O)C(O)C3O)cc2)NC1=O (stereo not shown) [Example 246a]
0.5

Assign MIC Streptococcus agalactiae (GC 4564) to the following record: COc1ccc(COCC2OC(OC3C(CO)OC(Oc4ccc(CC5NC(=O)C(C(C)c6ccccc6)NC(=O)CNC(=O)C(CO)NC(=O)C(C(O)C6CNC(=N)N6C6OC(CO)C(O)C(O)C6O)NC(=O)C(C(O)C6CNC(=N)N6)NC5=O)cc4)C(O)C3O)C(O)C(O)C2O)cc1 (stereo not shown)
2

Fill in reported MIC Streptococcus agalactiae (GC 4564) for this entry: CC(C)=CCCC(C)=CCCC(C)=CCOc1cccc(C2OCC3OC(OC4C(CO)OC(Oc5ccc(CC6NC(=O)C(C(C)c7ccccc7)NC(=O)CNC(=O)C(CO)NC(=O)C(C(O)C7CNC(=N)N7C7OC(CO)C(O)C(O)C7O)NC(=O)C(C(O)C7CNC(=N)N7)NC6=O)cc5)C(O)C4O)C(O)C(O)C3O2)c1 (stereo not shown)
1

Look up and state reported MIC Streptococcus agalactiae (GC 4564) for N=C1NCC(C(O)C2NC(=O)C(Cc3ccc(OC4OC(CO)C(OC5OC6COC(Cc7ccccc7)OC6C(O)C5O)C(O)C4O)cc3)NC(=O)C(CC3CCCCC3)NC(=O)CNC(=O)C(CO)NC(=O)C(C(O)C3CNC(=N)N3C3OC(CO)C(O)C(O)C3O)NC2=O)N1 (stereo not shown)
0.12

Give reported MIC Streptococcus agalactiae (GC 4564) value for COc1ccc2cc(COCC3OC(OC4C(CO)OC(Oc5ccc(CC6NC(=O)C(C(C)c7ccccc7)NC(=O)CNC(=O)C(CO)NC(=O)C(C(O)C7CNC(=N)N7C7OC(CO)C(O)C(O)C7O)NC(=O)C(C(O)C7CNC(=N)N7)NC6=O)cc5)C(O)C4O)C(O)C(O)C3O)ccc2c1 (stereo not shown)
0.5
